The measured values listed here are drawn from BindingDB's records for doi:10.7270/Q2TX3CTT.

# pEC50 annotations
target-desc: Glycogen synthase kinase-3 beta (Homo sapiens, UniProt P49841)
Sequence (P49841 whole entry): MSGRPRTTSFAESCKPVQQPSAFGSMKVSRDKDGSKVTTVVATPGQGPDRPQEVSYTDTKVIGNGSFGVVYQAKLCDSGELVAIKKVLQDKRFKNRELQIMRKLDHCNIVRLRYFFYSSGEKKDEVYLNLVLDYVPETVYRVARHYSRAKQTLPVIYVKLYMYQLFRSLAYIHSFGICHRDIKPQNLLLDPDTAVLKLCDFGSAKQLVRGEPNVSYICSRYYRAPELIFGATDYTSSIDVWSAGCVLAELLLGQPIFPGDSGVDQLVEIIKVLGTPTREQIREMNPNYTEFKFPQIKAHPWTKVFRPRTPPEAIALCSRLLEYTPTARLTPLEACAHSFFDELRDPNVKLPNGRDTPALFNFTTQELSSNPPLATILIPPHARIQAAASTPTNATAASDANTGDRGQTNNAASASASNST
measurement-description: concentration-response blocking of human GSK3B – biochemical, luminescence, cell-free homogeneous, retest, dose response (AID 434954)
pEC50: −log10 of the molar value.
experimental-readout: pEC50

{"columns": ["compound", "experimental-readout", "measured-value"],
 "data": [
  ["CN(CCO)c1cc(N2CCC3(CC2)OCCO3)c2nonc2c1[N+](=O)[O-]", "pEC50", 4.17],
  ["COc1ccc(-n2sc3c(c2=S)-c2cc(OC)ccc2NC3(C)C)cc1", "pEC50", "< 3.52"],
  ["Cc1ccc(CC(=O)Nc2ncc([N+](=O)[O-])s2)cc1", "pEC50", 4.54],
  ["CCOC(=O)CSc1ccc2nnc(-c3ccccc3)n2n1", "pEC50", 4.35],
  ["CC1(C)CC(=O)C=C(Nc2ccc(F)cc2)C1", "pEC50", "< 3.52"],
  ["O=C(O)c1cccc(CSc2nnc(-c3cccnc3)o2)c1", "pEC50", "< 3.52"],
  ["NC(=O)CSc1nnc(COc2ccc3ccccc3c2)o1", "pEC50", "< 3.52"],
  ["Cc1ccc2c(c1)cc1c(=O)n(CC(=O)NCCN3CCCC3)nc(C)n12", "pEC50", "< 3.52"],
  ["CCCc1cc(=O)[nH]c(SCCOc2ccc(OCC)cc2)n1", "pEC50", "< 3.52"],
  ["c1cncc(-c2nc(NCc3cccs3)c3ccccc3n2)c1", "pEC50", "< 3.52"],
  ["COc1cccc2cc(C(=O)NCc3ccccc3Br)c(=O)oc12", "pEC50", "< 3.52"],
  ["CCc1n[nH]c(=S)n1N=CC(C)=Cc1ccccc1", "pEC50", "< 3.52"],
  ["CCOc1ccc2ncc(C(=O)c3ccc(OC)cc3)c(N3CCN(CC)CC3)c2c1", "pEC50", "< 3.52"],
  ["Cc1ccc(Nc2nc(N)c([N+](=O)[O-])c(NCCO)n2)cc1C", "pEC50", 4.84],
  ["CN(Cc1c(C(=O)NN=Cc2cccc(O)c2)nnn1-c1nonc1N)C1CCCCC1", "pEC50", 6.15],
  ["COc1ccc(C2c3c(n[nH]c3C)N=C3CC(C)(C)CC(=O)C32)cc1 (centres undefined)", "pEC50", 4.55],
  ["Cc1onc(-c2ccccc2Cl)c1C(=O)NNC(=O)c1ccc(F)cc1", "pEC50", "< 3.52"],
  ["CC(=O)c1cccc(S(=O)(=O)NC2CCSc3ccccc32)c1 (centres undefined)", "pEC50", "< 3.52"],
  ["COc1ccccc1/C=C/C=C1\\Oc2c(ccc(O)c2CN2CCN(CCO)CC2)C1=O", "pEC50", "< 3.52"],
  ["COC(=O)C(C)Sc1ccc2nnc(-c3ccc(F)cc3)n2n1 (centres undefined)", "pEC50", 4.92],
  ["Clc1ccc(CSc2nnc(-c3ccncc3)o2)cc1", "pEC50", 4.59],
  ["Cc1ccc(C2c3c([nH]c(=S)[nH]c3=O)N=C3CC(C)(C)CC(=O)C32)cc1 (centres undefined)", "pEC50", "< 3.52"],
  ["O=C(Cn1cc[n+](CC(=O)c2ccc(Cl)cc2Cl)c1)c1ccc(Cl)cc1Cl", "pEC50", "< 3.52"],
  ["Cc1nn(CC(=O)NCCCN2CCCCC2)c(=O)c2cccn12", "pEC50", "< 3.52"],
  ["CCn1c(=O)c(C(=O)NNC(=O)c2ccccc2)c(O)c2ccccc21", "pEC50", "< 3.52"],
  ["CCOC(=O)COC(=O)c1ccc(O)cc1 [(2-ethoxy-2-oxoethyl) 4-hydroxybenzoate]", "pEC50", "< 3.52"],
  ["COc1ccc(Nc2nc(Nc3ccc(OC)cc3)nc(-n3[nH]c(=O)c(C)c3C)n2)cc1", "pEC50", "< 3.52"],
  ["N#CCCSc1nc(N2CCOCC2)c2c(c1C#N)CCCC2", "pEC50", 5.03],
  ["Cc1ccc2nc3c(cc2c1)c(NC(=O)c1ccco1)nn3CC(C)C", "pEC50", "< 3.52"],
  ["O=C(O)c1ccccc1NCc1ccncc1", "pEC50", "< 3.52"],
  ["COc1cc(C2C(C(=O)c3cccs3)C(=O)C(=O)N2CCN2CCOCC2)ccc1OCCC(C)C (centres undefined)", "pEC50", "< 3.52"],
  ["CN1CCN(C(=O)c2ccc(OCCOc3ccccc3)cc2)CC1", "pEC50", "< 3.52"],
  ["c1ccc(CSc2ccc3nnc(-c4cccnc4)n3n2)cc1", "pEC50", "< 3.52"],
  ["Cc1cccc(Nc2nc(N)c([N+](=O)[O-])c(NCc3ccccc3)n2)c1", "pEC50", 4.67]
]}
